Assay: Permeability of the compound assessed as membrane retention by PAMPA method
Assay type: ADME
Overview of recorded permeability for various compounds

Examples from the recorded data:
>  <Compound string>
O=C([O-])c1ccc(-c2ccc(O[C@H]3O[C@H](CO)[C@@H](O)[C@H](O)[C@@H]3O)c(Cl)c2)cc1.[Na+]

>  <permeability>
3.5%

$$$$
>  <Compound string>
CCCCCCCO[C@H]1O[C@H](CO)[C@@H](O)[C@H](O)[C@@H]1O

>  <permeability>
21%

$$$$
>  <Compound string>
COC(=O)c1ccc(-c2ccc(O[C@H]3O[C@H](CO)[C@@H](O)[C@H](O)[C@@H]3O)cc2Cl)cc1

>  <permeability>
67.6%

$$$$
>  <Compound string>
COC(=O)c1ccc(-c2ccc(Cl)c(O[C@H]3O[C@H](CO)[C@@H](O)[C@H](O)[C@@H]3O)c2)cc1

>  <permeability>
51.7%

$$$$
>  <Compound string>
COC(=O)c1ccc(-c2c(Cl)cc(O[C@H]3O[C@H](CO)[C@@H](O)[C@H](O)[C@@H]3O)cc2Cl)cc1

>  <permeability>
70.2%

$$$$
>  <Compound string>
COC(=O)c1ccc(-c2cccc(O[C@H]3O[C@H](CO)[C@@H](O)[C@H](O)[C@@H]3O)c2)cc1

>  <permeability>
60.7%

$$$$
>  <Compound string>
COC(=O)c1ccc(-c2ccc(O[C@H]3O[C@H](CO)[C@@H](O)[C@H](O)[C@@H]3O)cc2)cc1

>  <permeability>
< 20%

$$$$
>  <Compound string>
COC(=O)c1ccc(-c2ccc(O[C@H]3O[C@H](CO)[C@@H](O)[C@H](O)[C@@H]3O)c(Cl)c2)cc1

>  <permeability>
41%

$$$$

Provide measured permeability value, entry: COC(=O)c1ccc(-c2cc(Cl)c(O[C@H]3O[C@H](CO)[C@@H](O)[C@H](O)[C@@H]3O)c(Cl)c2)cc1 54.3%

Provide measured permeability value, entry: O=C([O-])c1ccc(-c2cccc(O[C@H]3O[C@H](CO)[C@@H](O)[C@H](O)[C@@H]3O)c2)cc1.[Na+] 9.7%

----------
Experiment: Thermodynamic solubility of the compound at pH 6.5 after 24 hrs by LC-MS analysis
Type: physicochemical
Settings: buffer, read-out: Therm_solubility
Overview of recorded solubility thermodynamic at 24 h for various compounds
Return type: number; implicit unit µg/mL.

>  <Compound string>
COC(=O)c1ccc(-c2ccc(O[C@H]3O[C@H](CO)[C@@H](O)[C@H](O)[C@@H]3O)cc2Cl)cc1

>  <Metric name>
solubility thermodynamic at 24 h

>  <Assay value>
11.5

$$$$
>  <Compound string>
COC(=O)c1ccc(-c2c(Cl)cc(O[C@H]3O[C@H](CO)[C@@H](O)[C@H](O)[C@@H]3O)cc2Cl)cc1

>  <Metric name>
solubility thermodynamic at 24 h

>  <Assay value>
22.7

$$$$
>  <Compound string>
COC(=O)c1ccc(-c2cccc(O[C@H]3O[C@H](CO)[C@@H](O)[C@H](O)[C@@H]3O)c2)cc1

>  <Metric name>
solubility thermodynamic at 24 h

>  <Assay value>
37.6

$$$$

# context switch: different compound, same solubility thermodynamic at 24 h
Provide measured solubility thermodynamic at 24 h value, entry: COC(=O)c1ccc(-c2cc(Cl)c(O[C@H]3O[C@H](CO)[C@@H](O)[C@H](O)[C@@H]3O)c(Cl)c2)cc1 4.6

----------
Assay: Thermodynamic solubility of the compound at pH 6.5 after 24 hrs by LC-MS analysis
Type: physicochemical
Conditions: buffer, read-out: Therm_solubility
Metric name: solubility thermodynamic at 24 h (µg/mL)
Return type: number; implicit unit µg/mL.

>  <Compound string>
COC(=O)c1ccc(-c2ccc(O[C@H]3O[C@H](CO)[C@@H](O)[C@H](O)[C@@H]3O)cc2)cc1

>  <Units of measure>
µg/mL

>  <solubility thermodynamic at 24 h>
33.8

$$$$
>  <Compound string>
COC(=O)c1ccc(-c2ccc(O[C@H]3O[C@H](CO)[C@@H](O)[C@H](O)[C@@H]3O)c(Cl)c2)cc1

>  <Units of measure>
µg/mL

>  <solubility thermodynamic at 24 h>
11.9

$$$$

# context switch: different compound, same solubility thermodynamic at 24 h
Provide measured solubility thermodynamic at 24 h value, entry: COC(=O)c1ccc(-c2ccc(Cl)c(O[C@H]3O[C@H](CO)[C@@H](O)[C@H](O)[C@@H]3O)c2)cc1 24.3

----------
Assay: Plasma protein binding in human by miniatured equilibrium dialysis method
Assay type: ADME, cell-free
Settings: read-out: PPB (converted)
Metric name: fraction unbound
Format: numeric value only, no unit, no commentary.

Examples from the recorded data:
>  <Compound string>
COC(=O)c1ccc(-c2ccc(O[C@H]3O[C@H](CO)[C@@H](O)[C@H](O)[C@@H]3O)c(Cl)c2)cc1

>  <Assay value>
0.06

$$$$
>  <Compound string>
O=C([O-])c1ccc(-c2ccc(Cl)c(O[C@H]3O[C@H](CO)[C@@H](O)[C@H](O)[C@@H]3O)c2)cc1.[Na+]

>  <Assay value>
0.13

$$$$

Provide measured fraction unbound value, entry: COC(=O)c1ccc(-c2ccc(O[C@H]3O[C@H](CO)[C@@H](O)[C@H](O)[C@@H]3O)cc2)cc1 0.07

Provide measured fraction unbound value, entry: COC(=O)c1ccc(-c2cccc(O[C@H]3O[C@H](CO)[C@@H](O)[C@H](O)[C@@H]3O)c2)cc1 0.08

----------
Assay: Thermodynamic solubility of the compound at pH 6.5 after 24 hrs by LC-MS analysis
Assay type: physicochemical
Settings: buffer, read-out: Therm_solubility
Overview of recorded solubility thermodynamic at 24 h for various compounds

>  <Compound string>
O=C([O-])c1ccc(-c2ccc(O[C@H]3O[C@H](CO)[C@@H](O)[C@H](O)[C@@H]3O)cc2)cc1.[Na+]

>  <solubility thermodynamic at 24 h>
> 3000 µg/mL

$$$$
>  <Compound string>
CCCCCCCO[C@H]1O[C@H](CO)[C@@H](O)[C@H](O)[C@@H]1O

>  <solubility thermodynamic at 24 h>
> 3000 µg/mL

$$$$

Provide measured solubility thermodynamic at 24 h value, entry: O=C([O-])c1ccc(-c2ccc(Cl)c(O[C@H]3O[C@H](CO)[C@@H](O)[C@H](O)[C@@H]3O)c2)cc1.[Na+] > 3000 µg/mL

Provide measured solubility thermodynamic at 24 h value, entry: O=C([O-])c1ccc(-c2ccc(O[C@H]3O[C@H](CO)[C@@H](O)[C@H](O)[C@@H]3O)c(Cl)c2)cc1.[Na+] > 3000 µg/mL

----------
Test: Thermodynamic solubility of the compound at pH 6.5 after 24 hrs by LC-MS analysis
Assay type: physicochemical
Conditions: buffer, read-out: Therm_solubility
Overview of recorded solubility thermodynamic at 24 h for various compounds

>  <Compound string>
O=C([O-])c1ccc(-c2cccc(O[C@H]3O[C@H](CO)[C@@H](O)[C@H](O)[C@@H]3O)c2)cc1.[Na+]

>  <Assay value>
> 3000 µg/mL

$$$$
>  <Compound string>
O=C([O-])c1ccc(-c2ccc(O[C@H]3O[C@H](CO)[C@@H](O)[C@H](O)[C@@H]3O)cc2Cl)cc1.[Na+]

>  <Assay value>
> 3000 µg/mL

$$$$

Provide measured solubility thermodynamic at 24 h value, entry: OC[C@H]1O[C@H](Oc2ccccc2)[C@@H](O)[C@@H](O)[C@@H]1O > 3000 µg/mL
